Listed here are substances together with their documented MBIC.
test system: Staphylococcus aureus biofilm; assay: Antibiofilm assay (crystal violet); type: cell-based; set-up: unit not given here; conditions: S. aureus, biofilm prevention, 570 nm
No end group written: not given here.

{"substance": "DKLIGSCVWGAVNYTSDCNAECKRRGYKGGHCGSFANVNCWCET (disulfide (positions not given here)) [DefA, designed synthetic butterfly defensin analog]", "MBIC": 4}
{"substance": "KWKIFKKIEKVGRNIRDGIIKAGPAVQVVGQAATIYKGK [CecB, designed synthetic butterfly cecropin analog]", "MBIC": 2}
{"substance": "GKIPIGAIKKGAKAVGKGLKALNIASTAHDIYSFHHKKKKH [MorA, designed synthetic butterfly moricin analog]", "MBIC": 4}
{"substance": "GCVFYECIARCRQRGYLSGGYCTINGCQCL-NH2 (disulfide (positions not given here)) [DefB, designed synthetic butterfly defensin analog, C-terminally amidated]", "MBIC": 2}

FYI, the data here is from paper PMC8427292.
